The compounds listed here are annotated with their IC50.
System: pSTAT5/GM-CSF
Experiment: pSTAT5/GM-CSF cellular assay (JAK2 selectivity)
Format: cell-based

Sample answers from the record:
compound: COCCOc1cc(Nc2cc(NC(C)=O)ncc2-c2cc3c(cn2)OCCO3)nc(S(C)(=O)=O)c1 [Example Q19]
IC50: > 10 µM

compound: CC(=O)Nc1cc(Nc2cc(C(F)F)cc(S(C)(=O)=O)n2)c(-c2ccn(C)n2)cn1 [Example J42]
IC50: > 10 µM

compound: CC(=O)Nc1cc(Nc2cccc(S(C)(=O)=O)n2)c(-c2ccn(C(C)C)n2)cn1 [Example M22]
IC50: 0.532 µM

[ask] Suppose we examine the compound COCc1cc(Nc2cc(NC(C)=O)ncc2-c2ccn(C)n2)nc(S(C)(=O)=O)c1 [Example J19] ; what IC50 value has been reported?
[reply] > 10 µM

[ask] What about this compound? CC(=O)Nc1cc(Nc2cc(OC3CCC3)cc(S(C)(=O)=O)n2)c(-c2ccc(C(C)(C)O)cn2)cn1 [Example H31]
[reply] > 10 µM
